Hello, the source for this data is ChEMBL document CHEMBL2390820, in case you need it.

assay: Selectivity index, ratio of CC50 for Huh5-2 cells to EC50 for HCV genotype 1b infected in Huh5-2 cells; parameters: species or system Huh-5-2
Exercise: for every item that follows, state its recorded Ratio CC50/EC50.
Answers are plain numbers.

# return Ratio CC50/EC50 for each item in the list
1. COc1cccc(-c2nc3ccc(-c4ccsc4)cn3c2-c2cccc(-c3ccccc3)c2)c1
2. Fc1ccc(-c2cccc(-c3c(-c4ccc(F)cc4)nc4ccccn34)c2)cc1
3. Fc1ccc(-c2nc3ccc(N4CCOCC4)cn3c2-c2ccc(-c3ccccc3)cc2)cc1
4. CN1CCN(c2cccc(-c3c(-c4ccc(F)cc4)nc4ccccn34)c2)CC1
5. COc1ccccc1-c1nc2ccc(-c3ccsc3)nn2c1-c1cccc(-c2ccco2)c1

(A)
1: 1.6; 2: 5.3; 3: 2.3; 4: 2.8; 5: 3.6

Record Ratio CC50/EC50 for all entries; do not skip any.
1. CC(C)(C)c1nc2ccc(-c3ccsc3)nn2c1-c1cccc(-c2ccoc2)c1
2. COc1ccccc1-c1nc2ccccn2c1-c1cccc(-c2ccccc2O)c1
3. Fc1ccc(-c2nc3ccc(-c4ccsc4)nn3c2-c2cccc(-c3ccccc3)c2)cc1

(A)
1. 6.3
2. 2
3. 1.2
